experiment: activity coefficient (dimensionless); of the first substance listed, at infinite dilution; xn = mol fraction of the nth substance listed; conditions: 348.15 K; 101 kPa; Liquid; Chromatography; x1 = 0
Response field class: enum, chosen by comparing activity coefficient against low bracket: < 3; middle bracket: ≥ 3 and < 30; high bracket: ≥ 30

Recorded results for 8 compounds are shown here.
{"COMPOUND": "Cc1ccccc1 [toluene] + CCn1cc[n+](C)c1.CS(=O)(=O)[O-]", "CAT": "middle bracket"}
{"COMPOUND": "CCC[N+](=O)[O-] [1-nitropropane] + CCn1cc[n+](C)c1.CS(=O)(=O)[O-]", "CAT": "low bracket"}
{"COMPOUND": "Cc1cccc(C)c1 [1,3-dimethylbenzene] + CCn1cc[n+](C)c1.CS(=O)(=O)[O-]", "CAT": "middle bracket"}
{"COMPOUND": "C#CCCCCCC [1-octyne] + CCn1cc[n+](C)c1.CS(=O)(=O)[O-]", "CAT": "middle bracket"}
{"COMPOUND": "C1CCCCCCC1 [cyclooctane] + CCn1cc[n+](C)c1.CS(=O)(=O)[O-]", "CAT": "high bracket"}
{"COMPOUND": "C=CCCCCCCCC [1-decene] + CCn1cc[n+](C)c1.CS(=O)(=O)[O-]", "CAT": "high bracket"}
{"COMPOUND": "CCc1ccccc1 [ethylbenzene] + CCn1cc[n+](C)c1.CS(=O)(=O)[O-]", "CAT": "middle bracket"}
{"COMPOUND": "CCO [ethanol] + CCn1cc[n+](C)c1.CS(=O)(=O)[O-]", "CAT": "low bracket"}

[Q] Which class is correct for the following compound? C1CCCCC1 [cyclohexane] + CCn1cc[n+](C)c1.CS(=O)(=O)[O-]
[A] high bracket

[Q] Which class is correct for the following compound? C#CCCCCC [1-heptyne] + CCn1cc[n+](C)c1.CS(=O)(=O)[O-]
[A] middle bracket

[Q] Which class is correct for the following compound? C=CCCCCC [1-heptene] + CCn1cc[n+](C)c1.CS(=O)(=O)[O-]
[A] high bracket

[Q] Which class is correct for the following compound? CCCO [propan-1-ol] + CCn1cc[n+](C)c1.CS(=O)(=O)[O-]
[A] low bracket

[Q] Which class is correct for the following compound? CCC(C)(C)OC [2-methoxy-2-methylbutane] + CCn1cc[n+](C)c1.CS(=O)(=O)[O-]
[A] high bracket

[Q] Which class is correct for the following compound? c1ccncc1 [pyridine] + CCn1cc[n+](C)c1.CS(=O)(=O)[O-]
[A] low bracket

[Q] Which class is correct for the following compound? CO [methanol] + CCn1cc[n+](C)c1.CS(=O)(=O)[O-]
[A] low bracket

[Q] Which class is correct for the following compound? C1COCCO1 [1,4-dioxane] + CCn1cc[n+](C)c1.CS(=O)(=O)[O-]
[A] low bracket

[Q] Which class is correct for the following compound? C=C(C)c1ccccc1 [(1-methylethenyl)benzene] + CCn1cc[n+](C)c1.CS(=O)(=O)[O-]
[A] middle bracket
